Test system: Candida albicans
Test: Intrinsic activity, microtitre plate method, CA
Format: cell-based
Set-up: key: rating 0 = no activity to 5 = biostatic, may be biocide
Conditions: 500 ppm a.i.
For each of the molecules below, state its CA rating.
One number for each entry.

A selection of reference data follows.
| Molecule | Tested System | Observed Measurement |
| --- | --- | --- |
| Fc1ccc([C@@]2(Cn3cncn3)O[C@H]2c2ccccc2Cl)cc1 [Epoxiconazole] | Candida albicans | 5 |
| CC(Oc1ccc(Cl)cc1Cl)C(=O)O (centres unmarked) [Dichlorprop, 2,4-Dichlorophenoxy-propionic acid] | Candida albicans | 2 |
| CC(Cc1ccc(C(C)(C)C)cc1)CN1C[C@@H](C)O[C@@H](C)C1 (some centres unmarked) [Fenpropimorph] | Candida albicans | 5 |
| O=C(O)COc1ccc(Cl)cc1Cl [2,4-D, 2,4-Dichlorphenoxy acetic acid] | Candida albicans | 5 |

Turning now to a further molecule:
Ask: // map CCCCCCCCCCCCNC(=N)N [Dodine] to recorded CA rating (system: Candida albicans)
Reply: 5

----------
Tested on: Saccharomyces cerevisiae
Assay: Intrinsic activity, microtitre plate method, SC
Type: cell-based
Design: key: rating 0 = no activity to 5 = biostatic, may be biocide
Details: 500 ppm a.i.
Measurement Name: SC rating
Numbers only.

A selection of reference data follows.
| Molecule | SC rating |
| --- | --- |
| Fc1ccc([C@@]2(Cn3cncn3)O[C@H]2c2ccccc2Cl)cc1 [Epoxiconazole] | 5 |
| CC(Cc1ccc(C(C)(C)C)cc1)CN1C[C@@H](C)O[C@@H](C)C1 (some centres unmarked) [Fenpropimorph] | 5 |
| CC(Oc1ccc(Cl)cc1Cl)C(=O)O (centres unmarked) [Dichlorprop, 2,4-Dichlorophenoxy-propionic acid] | 1 |
| CCCCCCCCCCCCNC(=N)N [Dodine] | 5 |

Ask: May I ask what SC rating has been recorded for O=C(O)COc1ccc(Cl)cc1Cl [2,4-D, 2,4-Dichlorphenoxy acetic acid] ?
Reply: 1

----------
System: Fungi
Experiment: Intrinsic activity, microtitre plate method, mean score over fungi
Format: cell-based, CA, SC, AN, PF, AA
Details: 500 ppm a.i.; performance against organisms/no of organisms; 0 to <3 poor, >3 inhibition, >4 biostasis, biocidal activity
For each of the compounds below, state its Fungi Mean Score.
Numbers only.

Please supply Fungi Mean Score for each of the following items, keeping them in order.
1. Fc1ccc([C@@]2(Cn3cncn3)O[C@H]2c2ccccc2Cl)cc1
2. CCCCCCCCCCCCNC(=N)N

Reply:
[4.6, 5.0]

Please supply Fungi Mean Score for each of the following items, keeping them in order.
1. CC(Cc1ccc(C(C)(C)C)cc1)CN1C[C@@H](C)O[C@@H](C)C1 (some centres unmarked)
2. CC(Oc1ccc(Cl)cc1Cl)C(=O)O (centres unmarked)
3. O=C(O)COc1ccc(Cl)cc1Cl

Reply:
1: 5.0; 2: 3.6; 3: 2.8

----------
System: Candida albicans
Assay: Intrinsic activity, microtitre plate method, CA
Format: cell-based
Conditions: 1000 ppm a.i.
For each of the compounds below, state its CA rating.
One number for each entry.

Please supply CA rating for each of the following items, keeping them in order.
1. CCCCCCCCCCCCNC(=N)N
2. CC(Oc1ccc(Cl)cc1Cl)C(=O)O (centres unmarked)
3. Fc1ccc([C@@]2(Cn3cncn3)O[C@H]2c2ccccc2Cl)cc1
4. O=C(O)COc1ccc(Cl)cc1Cl
5. CC(Cc1ccc(C(C)(C)C)cc1)CN1C[C@@H](C)O[C@@H](C)C1 (some centres unmarked)

Reply:
1. 5
2. 5
3. 5
4. 5
5. 5
